Give measured binding response (% of control) for each item. Keep answers brief.
Target: Mitogen-activated protein kinase kinase kinase 3 (Homo sapiens)
Test: blockers of MEK5-MEKK3 PB1 association – biochemical, bead multiplex flow cytometry, single concentration, wildtype, confirmation (AID 1894);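 further: 100% = DMSO only wells and 0% = binding blocked by excess unlabeled MEK5; lower values mean stronger disruption of MEK5 binding to MEKK3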
Conditions: Alexa488-MEK5 binding to MEKK3, at 10 µM, hits give low values
Hit rate of the full screen: of about 5,900 compounds, about 100 (1.7%) were called active. Only a selection was taken, and actives are over-represented in it overall.

INPUT: Consider the compound "COC(=O)CCc1sc(Nc2ccc(Br)cc2)nc1-c1ccc(OC)cc1" . State its measured binding response (% of control).
OUTPUT: 106% (inactive)

INPUT: Indicate the recorded binding response (% of control) value for this compound: "O=C(COC(=O)CNC(=O)c1ccco1)Nc1ccc(F)cc1"
OUTPUT: 103% (inactive)

INPUT: Provide only the value of recorded binding response (% of control) for "Cc1ccc(C(=O)N/C(=C/c2ccco2)C(=O)NCCc2c[nH]c3ccccc23)cc1C"
OUTPUT: 105% (inactive)

INPUT: Provide one value: measured binding response (% of control) of "Cc1ccc2c(C)c(C(=O)N3CCN(c4ccncc4)CC3)oc2c1C"
OUTPUT: 108% (inactive)

INPUT: Consider the compound O=C(O)CC(Cc1ccccc1)C(=O)Nc1ccc([N+](=O)[O-])cc1 (centres undefined) and give its recorded binding response (% of control).
OUTPUT: 100% (inactive)

INPUT: Respond only with binding response (% of control) recorded for "CCCn1c(=N)n(CC(=O)c2ccc(Cl)c(Cl)c2)c2ccccc21"
OUTPUT: 109% (inactive)

INPUT: Please supply the value of reported binding response (% of control) for the item "COc1ccccc1NC(=S)N1CCN(c2ccc(F)cc2)CC1"
OUTPUT: 102% (inactive)

INPUT: Look up binding response (% of control) of "COc1cc(/C=C2\SC(=S)N(Nc3ncc(C(F)(F)F)cc3Cl)C2=O)cc(OC)c1OC" and report it.
OUTPUT: 90% (inactive)

INPUT: Give reported binding response (% of control) value for "Cc1cccc(/C=N/NC(=O)CNc2cccc3ccccc23)n1"
OUTPUT: 110% (inactive)

INPUT: Specify measured binding response (% of control) for "CNC(=O)/C(=C\C=C\c1ccccc1)NC(=O)c1ccc([N+](=O)[O-])cc1" .
OUTPUT: 107% (inactive)

INPUT: Report measured binding response (% of control); entry is "CC(=O)Nc1ccc(N2CCOCC2)c(C(=O)Nc2cccc(C)c2)c1"
OUTPUT: 105% (inactive)

INPUT: Fill in binding response (% of control) for record CCCc1nnc(SCC(=O)N2C(C)CCCC2C)n1CC (centres undefined)
OUTPUT: 111% (inactive)

INPUT: Give recorded binding response (% of control). "O=C(CN1C(=O)c2cccnc2Oc2ccc(Cl)cc21)Nc1ccc(F)cc1"
OUTPUT: 103% (inactive)

INPUT: Consider the compound "CCCCN1C(=O)/C(=C(/C#N)C(N)=O)c2ccccc21" and give its recorded binding response (% of control).
OUTPUT: 99% (inactive)

INPUT: Give binding response (% of control) for the following compound: "Cc1c(S(=O)(=O)NCc2ccccc2)c(=O)n(C)c(=O)n1C"
OUTPUT: 101% (inactive)

INPUT: Note binding response (% of control) for the compound shown: "COc1cc(CC(=O)N/N=C/c2ccccc2)c([N+](=O)[O-])cc1OC"
OUTPUT: 104% (inactive)

INPUT: Return the recorded binding response (% of control) value; entry: "Cn1c(C(=O)NCCCN2CCCCC2)cc2sccc21"
OUTPUT: 109% (inactive)

INPUT: Please report the measured binding response (% of control) for "Cc1nn(-c2ccccc2)c(C)c1NC(=O)CCl"
OUTPUT: 97% (inactive)

INPUT: Report measured binding response (% of control); entry is "Cc1cnc(NC(=O)Cn2cnc3c2c(=O)n(C)c(=O)n3C)s1"
OUTPUT: 97% (inactive)

INPUT: Input "CC(C)CC(=O)NC(=S)Nc1cc(C(=O)O)ccc1Cl" , output reported binding response (% of control).
OUTPUT: 104% (inactive)

INPUT: Give the measured binding response (% of control) for "COc1ccccc1N=C(C)C1=C(O)COC1=O"
OUTPUT: 102% (inactive)

INPUT: Provide only the value of recorded binding response (% of control) for "Cc1no[n+]([O-])c1COc1ccccc1/C=C1\NC(=S)NC1=O"
OUTPUT: 101% (inactive)

INPUT: Respond only with binding response (% of control) recorded for "COc1cccc(/C(C)=N/Nc2ncc(Cl)cc2Cl)c1"
OUTPUT: 108% (inactive)

INPUT: Hello, please tell me recorded binding response (% of control) for this one: "CC(C)(C)c1nnc(NC(=O)C2c3ccccc3Oc3ccccc32)s1"
OUTPUT: 100% (inactive)

INPUT: Please list binding response (% of control) recorded for the compound "Cc1cc(Cl)ccc1OCc1nc(-c2ccncc2)no1"
OUTPUT: 79% (inactive)

INPUT: Provide measured binding response (% of control) value, entry: "COc1ccc(C(=O)NCC(=O)N/N=C/c2ccc([N+](=O)[O-])o2)cc1OC"
OUTPUT: 93% (inactive)

INPUT: Tell me measured binding response (% of control) for COc1ccc(C2CC(c3cccs3)=NN2c2nc(C)c(C(C)=O)s2)cc1OC (centres undefined) please.
OUTPUT: 97% (inactive)

INPUT: Specify reported binding response (% of control) for the compound shown: "Cc1cc(C(=O)OCC(=O)N2c3ccccc3NC(=O)C2(C)C)c(C)n1-c1ccccc1"
OUTPUT: 106% (inactive)

INPUT: Specify binding response (% of control) for "O=C(NCCCN1CCCCCC1)c1ccc(N2CCCC2=O)cc1" and stop.
OUTPUT: 110% (inactive)

INPUT: Using known records, supply binding response (% of control) for "CCc1ccc2nc(Nc3ncc(C(C)=O)c(C)n3)nc(C)c2c1"
OUTPUT: 102% (inactive)

INPUT: Give binding response (% of control) for CC(=O)N1CCN(S(=O)(=O)c2ccc(C)c([N+](=O)[O-])c2)C1C(C)C (centres undefined)
OUTPUT: 97% (inactive)

INPUT: Find the measured binding response (% of control) of "CCOc1cc(C2C(C(=O)OC)=CN(C3CCCC3)C=C2C(=O)OC)cc(Br)c1O" and report it.
OUTPUT: 109% (inactive)

INPUT: Supply measured binding response (% of control) of "O=C(O)c1cccnc1NC1CCCC1" in your reply.
OUTPUT: 108% (inactive)

INPUT: Give the reported value of binding response (% of control) for this record: "CCc1nnc(NC(=O)c2sc3nc(C)cc(COC)c3c2N)s1"
OUTPUT: 105% (inactive)

INPUT: Look up and state reported binding response (% of control) for CCCCNC(=O)N1CCCC(N(C)CCc2ccc(OC)c(OC)c2)C1 (centres undefined)
OUTPUT: 102% (inactive)

INPUT: Supply measured binding response (% of control) of "COc1cccc(Nc2ncccc2C(=O)O)c1" in your reply.
OUTPUT: 101% (inactive)

INPUT: Give recorded binding response (% of control). "Fc1ccc(-c2ccc(CNCc3ccccn3)o2)cc1Cl"
OUTPUT: 103% (inactive)

INPUT: Please report the measured binding response (% of control) for "Cc1ccccc1C(=O)NNC(=O)CN1C(=O)c2ccccc2C1=O"
OUTPUT: 93% (inactive)

INPUT: Report binding response (% of control), nothing else, for this compound: "Cc1nc2cc(S(=O)(=O)C(F)(F)F)ccc2s1"
OUTPUT: 101% (inactive)

INPUT: Check the records and state binding response (% of control) for CC1CN(C(=O)c2ccccc2NS(=O)(=O)c2cccc([N+](=O)[O-])c2)CC(C)O1 (centres undefined)
OUTPUT: 101% (inactive)

INPUT: Tell me measured binding response (% of control) for "CC(C)(C)NC(=O)Cn1cnc([N+](=O)[O-])n1" please.
OUTPUT: 97% (inactive)

INPUT: Kindly indicate its recorded binding response (% of control). Item: C#CCOCCOCCOCCNc1nc(N2CCN(C(=O)[C@H](CCCCN)n3cc([C@@H](N)C(C)CC)nn3)CC2)nc(N2CCN(C(=O)[C@H](Cc3ccc(O)cc3)n3cc([C@@H](N)C(C)CC)nn3)CC2)n1 (some centres undefined)
OUTPUT: 109% (inactive)

INPUT: Give the value of binding response (% of control) reported for the following: Cc1cc(C)c(NC(=O)C[N+](C)(C)CC(O)COc2cccc3ccccc23)c(C)c1 (centres undefined)
OUTPUT: 108% (inactive)

INPUT: For the compound "Cn1c(=NC(=O)CSCC(=O)N2CCCCC2)sc2ccccc21" , give its measured binding response (% of control) value.
OUTPUT: 104% (inactive)
